Hello, the source for this data is ChEMBL document CHEMBL1128377, in case you need it.

Test: Inhibition of [3H]dofetilide binding to guinea pig cardiac potassium (K+) channels.
Set-up: species or system Cavia porcellus
Endpoint Name: IC50 (nM)
# unit: nM | format: bare number

INSERT INTO assay_data (compound, endpoint_result) VALUES
  ('CC(C)C/N=c1\ccn(Cc2ccccc2)c2cc(Cl)ccc12', 2000),
  ('CCCCC/N=c1\ccn(Cc2ccc(Cl)cc2)c2c(F)cccc12', 310),
  ('CCCCC/N=c1\ccn(C2CCc3ccccc32)c2cc(Cl)ccc12 (stereo unspecified)', 870);

Input: Report IC50 for CCCCC/N=c1\ccn(Cc2ccc(Cl)cc2)c2cc(C(F)(F)F)ccc12 please.
Output: 90

Input: // query IC50 value for entry CCN(CC)CC/N=c1\ccn(Cc2ccccc2Cl)c2cc(Cl)ccc12
Output: 57

Input: Record request: IC50 value, item CCCCCC/N=c1\ccn(Cc2ccccc2)c2c(OC)cccc12
Output: 210
